Data origin: PubChem BioAssay (NCI)

Could you please report measured growth inhibition for the items listed next?
test: NCI Yeast Anticancer Drug Screen. Data for the rad50 strain (AID 155);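 also: 0% = growth of vehicle-only cultures of the same strain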; conditions: S. cerevisiae rad50 strain growth inhibition; at 50.0 µM; stronger effect = higher value
The panel holds about 79,000 compounds, 15% with a hit somewhere; the sample as a whole holds those more often.
Give bare numbers, in %.

Use these answered entries as a reference point.
CCC[CH2][Sn]([CH2]CCC)([O]C(=O)CN)[O]C(=O)CN = 29.9
CCC1CN1CCC(=O)Nc1ccccc1 (centres undefined) = -2.8
O=[C-]/C=C/c1ccccc1.[C-]#[O+].[C-]#[O+].[Fe+2].[c-]1ccccc1 = 21.8
N#CC1=C(C#N)C(=O)C(Cl)=C(Cl)C1=O = 14.9
ClCCN(CCCl)c1ccc(/C=N/N=C2c3ccccc3-c3ccccc32)cc1 = -21.6

Give me growth inhibition for each of these compounds, listed below.
1. CC(Br)[N+](=O)[O-] (centres undefined)
2. NC(=O)Oc1ccccc1
3. C=CCP(c1ccccc1)c1ccccc1
4. CC1OC(=O)C2CC3CCCCC3C(/C=C/C3CCCC(C)N3C)C12 (centres undefined)
5. CCCCOP(=S)(OCCCC)Oc1ccc(Cl)cc1Cl
6. N#CC(C#N)=Cc1ccccc1C(=O)O
7. O=C1NCN(c2ccccc2)C12CCN(CCCS(=O)(=O)c1ccccc1)CC2
8. CCCCCC(N)CC(=O)O (centres undefined)

## Output
[28.8, -4.5, -2, 1.2, -4.95, 14.9, -22.4, 8.95]

====

assay: NCI Yeast Anticancer Drug Screen. Data for the cln2 rad14 strain (AID 165);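 also: 0% = growth equal to vehicle treated cultures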; details: S. cerevisiae cln2 rad14 strain, at 50.0 µM, stronger effect = higher value
This is part of a sample that, as a whole, favours compounds with a hit. Of some 79,000 tested, about 15% had one in any assay. Activity calls are given as the source filed them. Cut-off read from the data, not from the text of the source: active = growth inhibition above about 70%; inactive = the rest.
measurement-name: growth inhibition

Nc1ccc([As](=O)(O)O)cc1 = 11.8% (inactive)
C=CCN1CC2CN=NC2(C#N)C1 (stereo not given) = -22.3% (inactive)
ClCCCN1CCN(CCCl)CC1 = 3.2% (inactive)
COc1ccc2c(c1)CC1N(C)CCC13CCCCC23 (stereo not given) = 2.1% (inactive)
O=C(Nc1c(Cl)cc([N+](=O)[O-])cc1Cl)C(=O)C1C(=O)NC(=S)NC1=O = 7.65% (inactive)

Give me growth inhibition for each of these compounds, listed below.
1. CN(C)C1CCNCC1
2. N/C(=N\NC(=O)c1ccc([N+](=O)[O-])cc1)N[N+](=O)[O-]
3. O=C1OC(c2ccccc2)(c2ccccc2)C(=O)OC1(c1ccccc1)c1ccccc1
4. CC1(C)C(=O)N(O)C(C)(C)N1N=O
5. Nc1nc(-c2ccccc2)c[se]1

## Output
1: 4.75% (inactive); 2: 28.8% (inactive); 3: 0.4% (inactive); 4: 28.4% (inactive); 5: 16.6% (inactive)

Give me growth inhibition for each of these compounds, listed below.
1. Cc1cccc(C)c1NC(N)=S
2. CC(=O)CC(C)=O.CC(=O)CC(C)=O.CC(=O)CC(C)=O.[La]
3. CC(=O)CCNC1(c2ccccc2)CCCCC1
4. COC(=O)C1C(O)CC2CCC1[N+]2(C)C (stereo not given)

## Output
1. -86.7% (inactive)
2. 19.1% (inactive)
3. -0.65% (inactive)
4. 2.05% (inactive)

Give me growth inhibition for each of these compounds, listed below.
1. CC(=O)Cc1ccc(C)cc1
2. CC(=O)C(Sc1ccccc1[N+](=O)[O-])C(C)=O.[Co]
3. CC(=O)C1CCC2C3CC=C4CC(OOS(=O)c5ccc(C)cc5)CCC4(C)C3CCC12C (stereo not given)

## Output
["7.3% (inactive)", "-1.3% (inactive)", "-31.4% (inactive)"]

Give me growth inhibition for each of these compounds, listed below.
1. COC(=O)C1=COC(C)[C@H]2CN3CCc4c([nH]c5cc(OC)ccc45)C3CC12 (stereo not given in full)
2. CC1(C)O[C@]2(C)CC[C@@H]1[C@@H](O)[C@@H]2N1CCCC1
3. Clc1cccc2nncc(N3CC3)c12
4. CN(C)CCNC(=O)c1cc([N+](=O)[O-])cc2c1Oc1ccccc1O2
5. Cc1ccc(S(=O)(=O)Nc2cc(C)cc(CCN)c2C)cc1
6. [CH3][Sn]([Cl])([Cl])[c]1ccccc1
7. CCCCCCC(Cn1ccnc1)c1ccc(Br)cc1 (stereo not given)
8. CC(C)(O)[C@H]1[C@@H]2OC(=O)[C@H]1[C@]1(O)C[C@H]3OC34C(=O)O[C@H]2[C@@]41C (stereo not given in full) (tested in a mixture with another compound)

## Output
0.9% (inactive)
-33.4% (inactive)
-6.2% (inactive)
16.9% (inactive)
4.75% (inactive)
-18.5% (inactive)
98.3% (active)
-9.25% (inactive)

Give me growth inhibition for each of these compounds, listed below.
1. CN(c1ccccc1)c1nc(=[N+]2CCCC2)ss1
2. NC(=O)c1cccc([As]=O)c1 (stereo not given)
3. Cc1c(Cl)cc([N+](=O)[O-])c(O)c1[N+](=O)[O-]
4. CN(C)C(=O)O/N=C(\c1ccccc1)C(F)(F)F
5. CCOP(=O)(OCC)C(O)C(C)C (stereo not given)

## Output
["0.9% (inactive)", "-18.6% (inactive)", "30.7% (inactive)", "15.4% (inactive)", "-19.8% (inactive)"]

====

assay: NCI Yeast Anticancer Drug Screen. Data for the cln2 rad14 strain (AID 165);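 also: 0% = growth equal to vehicle treated cultures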; conditions: S. cerevisiae cln2 rad14 strain, at 50.0 µM, stronger effect = higher value
Compounds without any hit were thinned out: in the full panel of roughly 79,000, 15% have a hit.
Could you please report measured growth inhibition for the items listed next?
Numbers only, in %.

C=C(C)c1ccccc1 (tested in a mixture with another compound) = -8.8
O.O=[N+]([O-])O.[NH2-].[NH2-].[Pt+2] = 15.2
COc1ccc2c(C3(O)CCNCC3)c[nH]c2c1 = 2.75

Give me growth inhibition for each of these molecules, listed below.
1. COc1ccc(N=NC(=O)NC(CC(C)C)C(=O)NC(C)C(=O)O)cc1 (stereo unspecified)
2. NC(=O)CCl
3. O=NNc1cccnc1

## Output
1: -19.6; 2: -1.45; 3: 4.45

====

assay: NCI Yeast Anticancer Drug Screen. Data for the rad50 strain (AID 155);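 also: 0% = growth of vehicle-only cultures of the same strain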; conditions: S. cerevisiae rad50 strain growth inhibition; at 50.0 µM; stronger effect = higher value
Compounds without any hit were thinned out: in the full panel of roughly 79,000, 15% have a hit.
Could you please report measured growth inhibition for the items listed next?
One number for each entry, in %.

Use these answered entries as a reference point.
C[As+](C)(C)c1ccc(Br)c([N+](=O)[O-])c1 = 7.6
Cc1c2ccncc2c(C)c2c1[nH]c1ccccc12 = 91.2
CCCCNC(=O)CCl = 13.4

Give me growth inhibition for each of these compounds, listed below.
1. [N-]=[N+]=CC(=O)CCC(=O)C=[N+]=[N-]
2. OCCN=Cc1c[nH]c2ccccc12
3. O=C(O)Cc1ccc2c(c1)OCO2
4. O=C(c1ccccc1)c1c(CC(O)c2ccccc2)n(C(=O)c2ccccc2)c2ccccc12 (stereo unspecified)
5. O=C1/C(=C\c2ccccc2)C2OCC=C3CN4CCC56c7ccccc7N1C5C2C3CC46 (stereo unspecified)

## Output
1. 10.2
2. -49.9
3. 20.9
4. 10.6
5. -18.6

====

experiment: NCI Yeast Anticancer Drug Screen. Data for the mlh1 rad18 strain (AID 175); conditions: S. cerevisiae mlh1 rad18 strain growth inhibition; at 50.0 µM
Compounds without any hit were thinned out: in the full panel of roughly 79,000, 15% have a hit. Active and inactive are the calls of the source. Rule as the data show it: active = growth inhibition above about 70%; inactive = the rest.
Entry note: the call must match one of label 1 = active, label 0 = inactive

Answered examples (5):
OCCN=Cc1c[nH]c2ccccc12 = label 0
CCCOP(=O)(OCCC)C(=O)Nc1ccc(Br)cc1 = label 0
CC1[N-]C(/C=N/O)NC(C)N1.CC1[N-]C(/C=N/O)NC(C)N1.[Br][Ni+2][Br] (stereo not given) = label 0
NC(=O)Nc1cc(NC(N)=O)cc(N(CCCl)CCCl)c1 = label 0
c1ccc(N2CCNCC2)cc1 = label 0

## Input Name the outcome recorded for C[C@]12CC[C@@H]3C4=CC(=O)CC[C@@H]4CC[C@H]3[C@@H]1CC[C@@H]2O in the assay.
## Output label 0

## Input Name the outcome recorded for C[N+]12C(=O)CC3OCC=C4C[N+]5(C)CCC6(c7ccccc71)C2C3C4CC65O (stereo not given) in the assay.
## Output label 0

## Input Name the outcome recorded for C=[CH][Sn]([Cl])([Cl])[CH]=C.CN(C)P(=O)(N(C)C)N(C)C in the assay.
## Output label 0

====

test: NCI Yeast Anticancer Drug Screen. Data for the sgs1 mgt1 strain (AID 161);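 also: 0% = growth of cultures given vehicle only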; details: S. cerevisiae sgs1 mgt1 strain, at 50.0 µM, stronger effect = higher value
Compounds without any hit were thinned out: in the full panel of roughly 79,000, 15% have a hit.
measurement-name: growth inhibition (%)
One number for each entry, in %.

Use these answered entries as a reference point.
CNC(=O)Oc1cccc2c(OC3OC(CO)C(O)C(O)C3O)cccc12 (stereo not given) = -12.8
CN(N=O)C(=O)ON1C(=O)CCC1=O = 11.3
COc1cccc(C2CC(=O)c3cccn32)c1 (stereo not given) = -4.7
CNC1(c2ccc(F)cc2)CCCCC1 = -11.5
O=C1C=CC(=O)N1c1ccccc1Cl (tested in a mixture with another compound) = 20.5
CCOP(=O)(Cc1ccc(Cl)cc1)OCC = 17.6
O=S1(=O)CC2(N3CCOCC3)C3CCC(C3)C21 (stereo not given) = 0.6
CN(C)/N=C/c1c[nH]c2ccccc12 = -20.1

Give me growth inhibition for each of these compounds, listed below.
1. C/C(=N\O)C(CN1CCCCC1)C(c1ccccc1)c1c(O)c2ccccc2oc1=O (stereo not given)
2. c1ccc2nc(-c3ccc4ccccc4n3)ccc2c1
3. CC1CN1C(=O)NCCCCCCNC(=O)N1CC1C (stereo not given)

## Output
1: 24.6; 2: -3.4; 3: -2.95

Give me growth inhibition for each of these compounds, listed below.
1. N#Cc1ccc(Cl)cc1
2. CN(C)CCNC(=O)c1cccc(COC(=O)N(CCCl)CCCl)c1[N+](=O)[O-]
3. C[C@]12CCc3nonc3C1CC[C@@H]1C2CC[C@@]2(C)C1CC[C@@H]2O (stereo not given in full)
4. CC(C)=CC1C(C(=O)OCc2cc3c(cc2Cl)OCO3)C1(C)C (stereo not given)
5. ClCCN(CCCl)c1ncnc2c1ncn2Cc1ccccc1
6. Nc1ccc2ncccc2c1 (tested in a mixture with another compound)
7. O=[N+]([O-])c1cc([As](=O)(O)O)ccc1S(=O)(=O)O
8. CCOC(=O)C(Cc1c[nH]c2ccccc12)NC(=O)/C=C/N(CCCl)CCCl (stereo not given)

## Output
[6.25, 15.8, -0.4, -15.2, 15.6, 45.5, 7, 17]

Give me growth inhibition for each of these compounds, listed below.
1. CC(C)NCc1ccccc1
2. O=c1n(CC2CO2)c2ccccc2n1CC1CS1 (stereo not given)
3. CC(=O)Nc1nc2c(ncn2C2OCC(OC(C)=O)C(OC(C)=O)C2OC(C)=O)c(=O)[nH]1 (stereo not given) (tested in a mixture with another compound)
4. CCCCOC(N)=O
5. CC(=O)Nc1ccc([N+](=O)[O-])c(C(F)(F)F)c1

## Output
[19.5, 7, 2.65, 29.4, 9.05]

Give me growth inhibition for each of these compounds, listed below.
1. COc1ccc2c(c1O)[C@@]13CCCC=C1[C@@H](C2)[N+](C)(C)CC3
2. COC12C(COC(N)=O)C3=C(C(=O)C(C)=C(N4CC4)C3=O)N1CC1NC12 (stereo not given)
3. CC1=CC(=O)CCC12CCOC2=O (stereo not given)
4. N/C(=N\NS(=O)(=O)c1ccccc1)N[N+](=O)[O-]
5. Cn1cnnc1[N+](=O)[O-]

## Output
[-19.9, 90.9, -21.3, 7.05, -11.4]

// sample Cc1cccc(Cl)c1OP(=O)(Oc1c(C)cccc1Cl)Oc1c(C)cccc1Cl , its growth inhibition was -19.3
